The reported numbers originate from ChEMBL document CHEMBL3763038.

- TARGET_UNDER_TEST: Histone deacetylase (HDAC1 and HDAC2) (Homo sapiens, UniProt Q13547+Q92769)
- EXPERIMENT_SUMMARY: Inhibition of HDAC1/2 in human HeLa cell nuclear extract using color de Lys as substrate preincubated for 5 mins followed by substrate addition measured after 30 min by microtiter plate reader analysis
- Type: cell-based
Measured IC50 by item
Kindly answer with a numeric value in µM, unit omitted.

| INPUT_SMILES | UNIT_OF_MEASUREMENT | MEASURED |
| --- | --- | --- |
| CC(C)Cn1cnc2c(NCCCCCCC(=O)NO)nc(Cl)nc21 | µM | 0.027 |
| O=C(CCCCCCNc1nc(N2CCOCC2)nc2[nH]cnc12)NO | µM | 0.157 |
| O=C(CCCCCNc1nc(Cl)nc2c1ncn2Cc1ccccc1)NO | µM | 0.026 |

Below: the item to evaluate.
Tested on Histone deacetylase (HDAC1 and HDAC2) (Homo sapiens, UniProt Q13547+Q92769), the item CCCCn1cnc2c(NCCCCCC(=O)NO)nc(N3CCOCC3)nc21 showed IC50 equal to 0.13

====

- TARGET_UNDER_TEST: Histone deacetylase 2 (Homo sapiens)
- Sequence (Q92769 whole entry): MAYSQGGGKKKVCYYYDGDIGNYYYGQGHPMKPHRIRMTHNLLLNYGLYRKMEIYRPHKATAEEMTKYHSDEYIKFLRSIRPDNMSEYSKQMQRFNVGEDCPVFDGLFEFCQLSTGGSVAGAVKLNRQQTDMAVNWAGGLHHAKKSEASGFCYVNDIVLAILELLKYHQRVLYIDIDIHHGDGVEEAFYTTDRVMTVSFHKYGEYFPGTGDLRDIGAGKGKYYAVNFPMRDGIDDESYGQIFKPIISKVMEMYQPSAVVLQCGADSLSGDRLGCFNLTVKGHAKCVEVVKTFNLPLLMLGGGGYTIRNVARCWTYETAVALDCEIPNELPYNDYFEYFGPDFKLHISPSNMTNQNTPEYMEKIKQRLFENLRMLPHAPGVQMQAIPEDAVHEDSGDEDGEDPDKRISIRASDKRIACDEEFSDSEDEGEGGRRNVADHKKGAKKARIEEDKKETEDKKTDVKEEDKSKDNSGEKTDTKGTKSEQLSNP
- EXPERIMENT_SUMMARY: Inhibition of C-terminal GST-tagged human recombinant HDAC2 expressed in Sf9 cells after 30 mins by microtiter plate reader analysis
ATTRIBUTE_MEASURED: pIC50
FYI, pIC50 means -log10 of a concentration in mol per litre.

| INPUT_SMILES | ATTRIBUTE_MEASURED | MEASURED |
| --- | --- | --- |
| CC(C)Cn1cnc2c(NCCCCCCC(=O)NO)nc(Cl)nc21 | pIC50 | 6.78 |

Could you now consider this next compound?
What the record says about O=C(CCCCCNc1nc(Cl)nc2c1ncn2Cc1ccccc1)NO : pIC50 is 7.25
